Numbers sourced from patent USRE48711E1.

- measured.on: UniProt Q99683
- Sequence (Q99683 649-946): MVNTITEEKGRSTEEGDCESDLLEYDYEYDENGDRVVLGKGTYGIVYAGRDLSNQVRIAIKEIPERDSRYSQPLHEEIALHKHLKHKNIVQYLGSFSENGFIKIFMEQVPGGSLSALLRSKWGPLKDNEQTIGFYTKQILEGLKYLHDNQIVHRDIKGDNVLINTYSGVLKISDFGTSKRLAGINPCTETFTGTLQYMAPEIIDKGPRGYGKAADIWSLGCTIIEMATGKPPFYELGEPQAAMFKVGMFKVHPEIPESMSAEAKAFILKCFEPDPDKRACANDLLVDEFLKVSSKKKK
- measurement.notes: ASK1 (Apoptosis Signal-Regulating Kinase 1) TR-FRET Kinase Assay (Biochemical IC50)
- experimental.context: TR-FRET, biotin-MBP substrate, 20 min pre-incubation, ATP added as 300 μM solution
assay.endpoint: log10 IC50 (log10 of the value in nM)
Use the decimal logarithm of IC50 (nM).

Example entries begin here.
1. O=C(Nc1cccc(-c2nncn2C2CC2)c1)c1cc(-c2cnc3scnn23)ccn1
1.67
2. Cc1cn(-c2ccnc(C(=O)Nc3cccc(-c4nncn4C4CC4)n3)c2)cn1
0.48

log10 IC50 measured on `O=C(Nc1cccc(-c2nncn2C2CC2)c1)c1cc(-n2cnc3c2CCCC3)ccn1` = 0.95

log10 IC50 measured on `O=C(Nc1cccc(-c2nncn2C2CC2)c1F)c1cc(-c2ccc(C3CC3)nc2)ccn1` = 1.00

log10 IC50 measured on `C[C@H](O)[C@H](C)n1cnnc1-c1cccc(NC(=O)c2cc(-c3ccc(C4CC4)nc3)ccn2)n1` = 0.78

log10 IC50 measured on `CCN1CCN(c2ccnc(C(=O)Nc3cccc(-c4nncn4C4CC4)c3)c2)CC1=O` = 1.67

log10 IC50 measured on `COCCNc1ccc(-c2ccnc(C(=O)Nc3cccc(-c4nncn4C4CC4)c3)c2)cn1` = 0.85

log10 IC50 measured on `CC(C)(O)c1ccc(-c2ccnc(C(=O)Nc3cccc(-c4nncn4C4CC4)c3)c2)cn1` = 0.70

log10 IC50 measured on `Cn1cc(-c2ccnc(C(=O)Nc3cccc(-c4nncn4C4CC4)c3)c2)cn1` = 1.59

log10 IC50 measured on `COc1ccc(C(=O)Nc2cccc(-c3nncn3C3CC3)n2)cc1-n1cnc(C2CC2)c1` = 0.85
